# Test system: HEK-293T
# protocol summary: Multiplex assay against HEK293T
# Format: toxicity, cell-based
# test parameters: human, 12 h, 1 µM, compound concentration 1 uM, replicate 1
result type: Total Cell Count
Simply state the number, no unit and no words.

Would you kindly share the measured Total Cell Count for CN1C2CCC1CC(OC(c1ccc(F)cc1)c1ccc(F)cc1)C2.Cl (configuration not stated) ?
303

What measured Total Cell Count goes with O=C1NC(=O)C(c2cnc3ccccn23)=C1c1cn2c3c(cc(F)cc13)CN(C(=O)N1CCCCC1)CC2 [LY-2090314] ?
191

Can you look up the measured Total Cell Count of CCOc1cc2ncc(C#N)c(Nc3ccc(OCc4ccccn4)c(Cl)c3)c2cc1NC(=O)/C=C/CN(C)C [NERATINIB] for me?
254

Tell me the measured Total Cell Count of `CCc1cccc(CC)c1NC(=O)c1nn(C)c2c1CCc1cnc(Nc3ccc(C(=O)NC4CCN(C)CC4)cc3OC(F)(F)F)nc1-2` , please.
312

Which Total Cell Count reading was recorded for the compound COc1cc2ncnc(Nc3ccc(F)c(Cl)c3)c2cc1NC(=O)/C=C/CN1CCCCC1 [DACOMITINIB ANHYDROUS] ?
554

Need Total Cell Count of `Cl.O=c1c2cccn2c2ccccc2n1CCCN1CCC(c2ccc(Cl)cc2)CC1` , thanks.
267

For the compound `CNc1cc(Oc2cc(C(=O)Nc3cc(N4CCN(C)CC4)cc(C(F)(F)F)c3)ccc2C)ncn1` , what Total Cell Count is on record?
263

Need Total Cell Count of CCN1CCN(c2ccc(Nc3cc(N(C)C(=O)Nc4c(Cl)c(OC)cc(OC)c4Cl)ncn3)cc2)CC1 [INFIGRATINIB] , thanks.
470

Can you look up the measured Total Cell Count of `Cc1ccc(C(=O)Nc2cccc(C(F)(F)F)c2)cc1Nc1nc(-c2cccnc2)nc2c1cnn2C` for me?
318

Entry O=C(Cc1ccc(-c2ccc(OCCN3CCOCC3)cc2)cn1)NCc1ccccc1 [TIRBANIBULIN] has what Total Cell Count?
193

Quick one: Total Cell Count for O=C(Nc1ccc(-n2nc(-c3cccnc3)cc2C(F)(F)F)cn1)c1ccc(-c2ccccc2)c(F)c1 [BI 2049] ?
147

What does the record list as Total Cell Count for `O=C1N/C(=N/c2ccccc2F)S/C1=C\c1ccc(C(=O)O)cc1` ?
182

I am curious: what Total Cell Count value has been reported for C=CCn1c(=O)c2cnc(Nc3ccc(N4CCN(C)CC4)cc3)nc2n1-c1cccc(C(C)(C)O)n1 [ADAVOSERTIB] ?
606

What value of measured Total Cell Count is listed for `Cc1cc(C)c(S(=O)(=O)N(Cc2ccc(-c3cccc(S(C)(=O)=O)c3)cc2)Cc2ccc(C(F)(F)F)o2)c(C)c1` ?
263

Reported Total Cell Count for CN(C)C(=O)C(CCN1CCC(O)(c2ccc(Cl)cc2)CC1)(c1ccccc1)c1ccccc1.Cl [LOPERAMIDE HYDROCHLORIDE] : what is it?
254

Item Cc1cn(-c2cc(NC(=O)c3ccc(C)c(Nc4nccc(-c5cccnc5)n4)c3)cc(C(F)(F)F)c2)cn1 [NILOTINIB] has what recorded Total Cell Count?
215

Query: Total Cell Count; subject: `Cl.O=C(c1ccc(Nc2nccc(-c3cc4ccccc4s3)n2)cc1)N1CCC(N2CCCC2)CC1`
657

Item `O=C(Nc1ccc(-c2ccnc(Nc3ccc(N4CCOCC4)cc3)n2)cc1)[C@@H]1CCCN1` has what recorded Total Cell Count?
289

Param item = `CCc1cccc(CC)c1NC(=O)c1nn(C)c2c1CCc1cnc(Nc3ccc(N4CCN(C)CC4)cc3OC)nc1-2` ; retrieve measured Total Cell Count.
690

Field request: Total Cell Count | item: CN1CCN(C(=O)C(C)(C)c2ccc(C(=O)Nc3cn4cc(-c5cc(C(C)(C)C)cc(C(C)(C)C)c5)ccc4n3)cc2)CC1 [T3-CLK-N]
642

# Total Cell Count lookup, item `CCN1CCN(Cc2ccc(Nc3ncc(F)c(-c4cc(F)c5nc(C)n(C(C)C)c5c4)n3)nc2)CC1.CS(=O)(=O)O`
249

Record request: Total Cell Count value, item `NC(=O)c1cccc(-c2cc(Nc3ccc(OC(F)(F)F)cc3)ncn2)c1`
801

Looking for the measured Total Cell Count of `CNC(=O)c1ccc(Nc2nc(OC3CCCC3)c3c(-c4ccc5nc(C)oc5c4)c[nH]c3n2)c(OC)c1` , can you help?
469

What measured Total Cell Count goes with CCOC(=O)c1c(C)[nH]c2ccc3c(c12)CN1CCc2cc(OC)ccc2C1O3 (configuration not stated) ?
228

Consider the compound shown here: CCCn1c(=O)c2[nH]c(-c3cnn(Cc4cccc(C(F)(F)F)c4)c3)nc2n(CC)c1=O [GS 6201] What is its recorded Total Cell Count?
294

Returns the measured Total Cell Count for the input compound. Input: CCCS(=O)(=O)Nc1ccc(F)c(C(=O)c2c[nH]c3ncc(Cl)cc23)c1F [PLX-4720]
675

Fill blank: measured Total Cell Count of the compound COc1cccc2cc(-c3nc([C@H]4CC[C@H](C(=O)O)CC4)n4ncnc(N)c34)[nH]c12 [OSI-027] is ____.
587

Entry under review: `Cl.Oc1ccc2c3c1O[C@H]1c4[nH]c5c(c4C[C@@]4(O)[C@@H](C2)N(CC2CC2)CC[C@]314)C[C@@]1(O)[C@H]2Cc3ccc(O)c4c3[C@@]1(CCN2CC1CC1)[C@H]5O4` . Reported Total Cell Count?
294

Name the reported Total Cell Count value associated with the compound `CCCS(=O)(=O)c1nc(NC2CC2)cc(-c2ccc3c(ccn3C3CC(C)(C)NC(C)(C)C3)c2)n1`
351

Suppose we examine the compound `O=C(Nc1cccnn1)N1CCC(=Cc2cccc(Oc3ccc(C(F)(F)F)cn3)c2)CC1` ; what Total Cell Count value has been reported?
578

Find the recorded Total Cell Count belonging to `CCn1c(=O)c(-c2ccc(-c3cncs3)cc2Cl)cc2cnc(Nc3ccc(N4CCN(C)CC4)cc3)nc21` and report it.
232

Field request: Total Cell Count | item: `S=C(NCCCc1c[nH]cn1)NCCCN(Cc1ccc(Cl)c(Cl)c1)c1ccc(Br)cn1`
310
